Origin of measurements: patent US20260242478A1

- Target: Anti-CD28 scFv (VH - linker 1 - VL) (biotinylated (site not stated))
- Sequence (scFv, as listed by the source): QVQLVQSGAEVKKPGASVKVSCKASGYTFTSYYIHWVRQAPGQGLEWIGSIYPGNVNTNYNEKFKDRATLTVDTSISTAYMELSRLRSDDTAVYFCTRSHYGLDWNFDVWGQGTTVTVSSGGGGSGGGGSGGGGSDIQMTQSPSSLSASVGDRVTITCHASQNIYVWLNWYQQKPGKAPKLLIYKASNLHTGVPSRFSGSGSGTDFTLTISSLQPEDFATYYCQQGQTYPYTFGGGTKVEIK
- Method Summary: phage binding ELISA; biotinylated anti-CD28 scFv on neutravidin plate, clonal phage supernatant, anti-M13 HRP detection
Where no end group is shown, it is not given here.
Measure: CD28 scFv signal

For the binder MDWCPMDLWDYCFN (peptide, not shown: large carriers, cysteine pairing not given here; also: displayed on phage by fusion to pIII, linker and pIII sequence not given here) [Phage-51 clonal phage peptide] , give its measured CD28 scFv signal value.
1.64

I would be grateful if you could provide CD28 scFv signal for each of the following entries.
1. MDWCPINLWDECFS (peptide, not shown: large carriers, cysteine pairing not given here; also: displayed on phage by fusion to pIII, linker and pIII sequence not given here) [Phage-52 clonal phage peptide]
2. MDWCPRALWAECFN (peptide, not shown: large carriers) [Phage-64 clonal phage peptide]
3. MDWCPPYLWNVCFS (peptide, not shown: large carriers, cysteine pairing not given here; also: displayed on phage by fusion to pIII, linker and pIII sequence not given here) [Phage-50 clonal phage peptide]

[1.5, 2.68, 1.64]
